Origin of values: patent EP2567959B1

molecular target: human full-length recombinant PKC βII (Homo sapiens); construct: Active human full-length recombinant PKC βII; purchased Invitrogen GmbH, Darmstadt, Germany; test: Determination of PKC βII inhibition (Caliper mobility-shift kinase assay, phosphorylation of fluorescein peptide substrate); assay type: biochemical; details: final compound concentration 1.14 µM (±0.15 µM); 60 min incubation at 32 °C
Sequence (P05771 1-673 isoform P05771-2): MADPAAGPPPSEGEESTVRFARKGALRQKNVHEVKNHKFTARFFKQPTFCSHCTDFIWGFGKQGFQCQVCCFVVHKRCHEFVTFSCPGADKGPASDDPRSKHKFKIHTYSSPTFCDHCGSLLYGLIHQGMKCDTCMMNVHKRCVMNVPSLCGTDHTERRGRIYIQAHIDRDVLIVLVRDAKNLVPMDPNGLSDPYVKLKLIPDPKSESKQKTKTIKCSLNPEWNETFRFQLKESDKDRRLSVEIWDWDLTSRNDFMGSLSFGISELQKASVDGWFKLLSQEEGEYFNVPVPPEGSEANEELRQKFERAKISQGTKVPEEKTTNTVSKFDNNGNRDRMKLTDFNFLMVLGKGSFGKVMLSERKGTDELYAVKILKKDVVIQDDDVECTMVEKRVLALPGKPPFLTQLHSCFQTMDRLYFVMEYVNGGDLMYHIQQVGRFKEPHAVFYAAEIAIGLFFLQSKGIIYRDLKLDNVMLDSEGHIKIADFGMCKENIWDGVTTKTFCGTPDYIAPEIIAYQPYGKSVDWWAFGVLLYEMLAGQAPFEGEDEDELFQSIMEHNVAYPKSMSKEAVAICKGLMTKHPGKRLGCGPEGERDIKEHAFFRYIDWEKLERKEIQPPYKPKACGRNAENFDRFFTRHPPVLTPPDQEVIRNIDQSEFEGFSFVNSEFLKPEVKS
MEASUREMENT_TYPE: inhibition at 1.14 µM (%)

1) O=C(c1cc(-c2ccc(O)cc2)nc2[nH]nc(/C=C/c3cccc4c3NCC4)c12)N1CCNCC1    99
2) O=C(c1cc(-c2ccc(O)cc2)nc2[nH]nc(/C=C/c3cc(Cl)cc(Cl)c3)c12)N1CCNCC1    98
3) COc1cc(/C=C/c2n[nH]c3nc(-c4ccc(O)cc4)cc(C(=O)N4CCNCC4)c23)cc(OC)c1OC    98
4) COc1ccccc1/C=C/c1n[nH]c2nc(-c3ccc(O)cc3)cc(C(=O)N3CCNCC3)c12    98
